Molecular target: Epidermal growth factor receptor (Homo sapiens) (UniProt P00533)
Sequence (P00533 whole entry, looked up): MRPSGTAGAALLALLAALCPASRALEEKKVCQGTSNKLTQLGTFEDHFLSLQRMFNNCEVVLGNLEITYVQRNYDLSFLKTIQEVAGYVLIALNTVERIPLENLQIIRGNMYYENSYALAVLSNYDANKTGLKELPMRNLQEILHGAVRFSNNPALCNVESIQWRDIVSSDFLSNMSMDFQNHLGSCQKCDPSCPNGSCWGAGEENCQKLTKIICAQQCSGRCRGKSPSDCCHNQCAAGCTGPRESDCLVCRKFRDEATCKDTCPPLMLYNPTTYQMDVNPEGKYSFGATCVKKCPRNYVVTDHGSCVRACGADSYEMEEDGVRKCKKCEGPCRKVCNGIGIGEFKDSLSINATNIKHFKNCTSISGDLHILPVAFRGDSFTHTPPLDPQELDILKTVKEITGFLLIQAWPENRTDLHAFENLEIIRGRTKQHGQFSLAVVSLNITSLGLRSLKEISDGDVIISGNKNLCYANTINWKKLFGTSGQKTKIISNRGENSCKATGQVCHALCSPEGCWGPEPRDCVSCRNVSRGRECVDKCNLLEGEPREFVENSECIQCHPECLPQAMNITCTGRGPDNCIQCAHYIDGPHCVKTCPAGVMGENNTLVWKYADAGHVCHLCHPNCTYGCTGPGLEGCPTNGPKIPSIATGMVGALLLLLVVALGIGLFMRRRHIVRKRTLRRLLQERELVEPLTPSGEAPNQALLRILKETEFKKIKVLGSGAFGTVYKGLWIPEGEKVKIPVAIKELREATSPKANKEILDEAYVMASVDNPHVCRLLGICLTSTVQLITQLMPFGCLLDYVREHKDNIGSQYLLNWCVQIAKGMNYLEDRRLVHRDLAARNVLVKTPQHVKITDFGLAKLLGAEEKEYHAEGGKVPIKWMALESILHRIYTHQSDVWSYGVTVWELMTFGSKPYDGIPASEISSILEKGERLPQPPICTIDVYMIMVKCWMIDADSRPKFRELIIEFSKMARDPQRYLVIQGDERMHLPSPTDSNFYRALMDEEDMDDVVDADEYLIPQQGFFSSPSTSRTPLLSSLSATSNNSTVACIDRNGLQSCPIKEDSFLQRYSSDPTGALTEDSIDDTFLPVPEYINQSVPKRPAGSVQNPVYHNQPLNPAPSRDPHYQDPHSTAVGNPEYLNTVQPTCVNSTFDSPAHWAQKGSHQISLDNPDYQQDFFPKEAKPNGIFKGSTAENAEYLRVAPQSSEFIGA
Test: EGFR binders on small-molecule microarrays, primary screen, biochemical, small-molecule microarray, 635 nm fluorescence (AID 1104);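 further: score merges 667 nm emission intensity with spot signal to noise over triplicate slides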
Settings: EGFR binding, higher = more signal
endpoint: composite z-score
One number for each entry.

1. Cc1ccc(F)cc1S(=O)(=O)N[C@@H]1CCN(Cc2ccc3[nH]ccc3c2)C1
0.651

Could I get composite z-score for every one of these entries?
1. CC(C)C[C@@H]1NC(=O)C([C@@H](C)OCc2ccccc2)NC(=O)[C@@]23C(=O)N[C@@H](Cc4ccccc4)C2[C@H](C)[C@@]2(C)O[C@H]2C3/C=C/CC/C=C/CNC1=O (stereo partly drawn)
2. COCC(=C=CC[C@@H](O)c1ccc(OCCO)cc1)C[C@@H](O)COCc1ccccc1
3. CCC[C@@H]1[C@@H](Sc2ccccc2)[C@@H](C(=O)O)[C@H](c2ccc(C)cc2)N1S(=O)(=O)c1ccc(C)cc1
4. NCCCC[C@@H]1NC(=O)[C@H]2C[C@@H](C(=O)NCc3ccc(F)cc3)[C@@H](c3ccc(O)cc3)N2C1=O
5. Cc1ccc(S[C@]2(C(=O)NC3CC3)CC(=O)N(Cc3cc(C(F)(F)F)cc(C(F)(F)F)c3)[C@@H]2c2ccc(CO)cc2I)cc1
6. COc1cc2c(cc1O)C(c1ccc(CN3CCCC3)cc1)N(Cc1cccc(OC(F)(F)F)c1)CC2 (stereo not drawn)
7. C[N+](C)(C)CCCC[C@@H]1NC(=O)[C@H]2C[C@@H](C(=O)NCCCCCNC(=O)CS)[C@@H](c3ccc(O)cc3)N2C1=O

Reply |
0.432
0.158
0.163
0.117
-0.141
0.576
0.0872

====

Give composite z-score for every item shown.
Target: Left-right determination factor 2 (Homo sapiens) (UniProt O00292)
Sequence (O00292 whole entry, looked up): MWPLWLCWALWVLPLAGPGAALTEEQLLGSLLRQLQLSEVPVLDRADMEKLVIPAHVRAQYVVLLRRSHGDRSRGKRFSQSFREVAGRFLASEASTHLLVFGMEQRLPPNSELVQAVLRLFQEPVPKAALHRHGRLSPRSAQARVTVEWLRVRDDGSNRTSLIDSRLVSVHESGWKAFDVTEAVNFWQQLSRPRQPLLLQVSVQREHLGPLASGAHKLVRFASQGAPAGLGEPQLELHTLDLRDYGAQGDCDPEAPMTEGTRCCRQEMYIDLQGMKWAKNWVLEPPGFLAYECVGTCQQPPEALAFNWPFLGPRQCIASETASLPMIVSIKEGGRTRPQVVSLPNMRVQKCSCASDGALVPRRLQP
Test: LEFTY2 binders on small-molecule microarrays, primary screen, biochemical, small-molecule microarray, 635 nm fluorescence scan (AID 1110)
Conditions: LEFTY2 binding, higher = more signal

1. C=CCC(OC(C)=O)[C@@H]1[C@@H](N(Cc2ccc(-c3ccccc3)cc2)C(=O)c2ccc(-c3ccccc3)cc2)c2cc(OCCCO)ccc2N1C(=O)c1ccc2ccccc2n1 (some centres not stated)
0.108
2. CC(C)N1CC=CC23O[C@@H]4C=CCCOC(=O)C4[C@H]2C(=O)N(CCCCCO)[C@@H]3C1=O (some centres not stated)
-1.18
3. C=C(COC)C(=O)CC[C@@H](OC(C)=O)c1ccc(OCCO)cc1
-0.374
4. CCOC(=O)C[C@H]1[C@H](OC(=O)c2cc3ccccc3oc2=O)[C@@H](NC(=O)C2CCCCC2)c2cc(OCCCO)ccc2N1C(=O)Cc1ccc(OC)cc1
0.304
5. COCCOC(=O)N1C(=O)[C@@]2(c3cc(C#CCC(C(=O)OC)C(=O)OC)ccc31)[C@H](C(N)=O)[C@H]1C(=O)O[C@H](c3ccccc3)[C@H](c3ccccc3)N1[C@@H]2c1ccc(OCCO)cc1
0.705
6. COC(=O)C(CC#Cc1ccc2c(c1)[C@]1(C(=O)N2)[C@H](c2ccc(O)cc2)N2[C@H](c3ccccc3)[C@H](c3ccccc3)OC(=O)[C@H]2[C@@H]1C(=O)N1CCc2cc(OC)c(OC)cc2C1)C(=O)OC
0.737

Ask | I'd like to know its composite z-score. The compound in question is C=CC[C@@]12N=C(c3ccc(OCCCO)cc3)O[C@@H]1c1ccccc1N(Cc1ccccc1)C2=O
Reply | 0.657

====

Molecular target: Dickkopf-related protein 1 (Homo sapiens) (UniProt O94907)
Sequence (O94907 whole entry, looked up): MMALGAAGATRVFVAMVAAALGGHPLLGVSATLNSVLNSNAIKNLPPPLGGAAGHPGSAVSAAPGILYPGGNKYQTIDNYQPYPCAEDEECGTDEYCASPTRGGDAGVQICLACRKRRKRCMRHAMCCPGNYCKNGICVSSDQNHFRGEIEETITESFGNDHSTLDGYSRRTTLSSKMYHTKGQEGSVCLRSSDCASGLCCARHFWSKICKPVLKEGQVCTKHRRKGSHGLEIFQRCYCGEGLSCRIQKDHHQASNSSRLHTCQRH
Assay: DKK1 binders on small-molecule microarrays, primary screen, biochemical, small-molecule microarray, 635 nm fluorescence scan (AID 1106);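 further: score merges emission near 667 nm with signal to noise over three replicate slides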
Details: DKK1 binding, higher = more signal
Threshold check on composite z-score: at or above 0.3 gives Y, strictly below gives N.

1) COC(=O)C1(CC(C)C)C=C2C(=C(C(C)C)C(=O)C2C)CN1 (centres undefined)
N

Ask | Please check the record CCOC(=O)C[C@H]1[C@H](OC(=O)c2cc3ccccc3oc2=O)[C@@H](NC(=O)C2CCCCC2)c2cc(OCCCO)ccc2N1C(=O)Cc1ccc(OC)cc1 and state if its composite z-score is at or above 0.3.
Reply | Y

Ask | Ok, now CN1C(=O)C2C(C1=O)C1C=C(c3ccc(CO)cc3)C2C(c2cccs2)N1C (centres undefined)
Reply | N

Ask | Ok, now COc1ccc([Si](C)(C)[C@H]2[C@H](CCO)O[C@@]3(C(=O)N(Cc4ccccc4)c4ccc(N(C=O)c5ccccc5)cc43)[C@@H]2C)cc1
Reply | N

Ask | Ok, now COC(=O)[C@@]1(Cc2ccc(OC)cc2)[C@H]2c3cc(C(=O)N4CCCC4)n(CCc4ccc(OC)c(Br)c4)c3C[C@H]2CN1C(=O)c1ccccc1
Reply | N

====

Experiment: CREB reporter modulators under forskolin, primary screen, cell-based, PC12, CRE-LacZ reporter, forskolin-stimulated (AID 1146);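 further: PC12 cells with 6xCRE LacZ reporter stimulated by forskolin 10 µM; beta-galactosidase reporter signal reflecting CREB driven transcription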
Details: luminescence, 4.5 h, higher = more signal, called active from +8 up or from −8 down
Threshold check on z-score: at or above -0.3 gives Satisfied, strictly below gives Not satisfied.

Previously resolved entries follow.
1) C=C(CCCC)C(=O)CC[C@H](OC(=O)c1cccnc1)c1ccc(CO)o1
Satisfied
2) COc1ccc(CC[C@H](O)c2cccc(OCC(=O)OC(C)(C)C)c2)cc1
Satisfied
3) O=C1O[C@H](c2ccccc2)[C@H](c2ccccc2)N2[C@H]1[C@@H](C(=O)NC[C@H](O)c1ccccc1)[C@]1(C(=O)Nc3ccc(C#CCCO)cc31)[C@H]2c1ccccc1OCCO
Satisfied
4) CCOC(=O)C[C@H]1[C@H](OC(=O)c2cc3ccccc3oc2=O)[C@@H](NC(=O)C2CCCCC2)c2cc(OCCCO)ccc2N1C(=O)Cc1ccc(OC)cc1
Satisfied

Ask | Please check the record O=C1NC(=O)C2C1C=CC(C(O)c1cccc(O)c1)N2Nc1ccc(Cl)cc1Cl (stereo not given) and state if its z-score is at or above -0.3.
Reply | Not satisfied

====

Assay: splicing luciferase reporter signal modulators, primary screen, spliceosome inhibition project, cell-based, HEK293, splice +/- reporter (AID 1101);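 further: HEK293 cells carrying a splicing-competent luciferase reporter gene; test concentration not given here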
Conditions: luminescence, 24 h, higher = more signal, called active from +8 up or from −8 down
endpoint: z-score
Answers are plain numbers.

Would you please look over these solved cases?
1. COC(=O)[C@@]1(CCC(=O)OC(C)(C)C)N=C(c2ccc(OCCCO)cc2)O[C@H]1c1ccccc1CN=[N+]=[N-]
1.29
2. COCCOC(=O)N1C(=O)[C@@]2(c3cc(C#CC4(O)CCCCCC4)ccc31)[C@H](C(=O)NC[C@H](O)c1ccccc1)[C@H]1C(=O)O[C@H](c3ccccc3)[C@H](c3ccccc3)N1[C@@H]2c1ccc(O)cc1
0.209
3. CC(=O)n1cc(C(O)C2C=CC3C(=O)N(c4ccccc4)C(=O)C3N2Nc2ccccc2F)c2ccccc21 (stereo not given)
-1.68

Could I get z-score for every one of these entries?
1. COCCOC(=O)N1C(=O)[C@@]2(c3cc(C#CCCO)ccc31)[C@H](c1ccc(O)cc1)N1[C@H](c3ccccc3)[C@H](c3ccccc3)OC(=O)[C@H]1[C@@H]2C(=O)N1CCc2cc(OC)c(OC)cc2C1
2. C=CCOC(=O)[C@H]1[C@@H]2C(=O)O[C@@H](c3ccccc3)[C@@H](c3ccccc3)N2[C@@H](c2ccc(OCCOC(=O)[C@H]3C[C@H]4C(=O)NCC(=O)N4[C@H]3c3ccc(O)cc3)cc2)[C@]12C(=O)Nc1ccc(I)cc12

Reply |
1: 0.305; 2: 0.0882

====

System: Wnt5a (protein binding on small-molecule microarray)
Test: Wnt5a binders on small-molecule microarray, primary screen, biophysical, 635/667 nm fluorescence (AID 1142);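 further: fluorescence read at 667 nm with signal to noise per printed feature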
Conditions: 635 nm fluorescence, higher = more signal
Give composite z-score for every item shown.
Give bare numbers.

1. COC(=O)C1=CC(CCCO)=CC(c2ccc(CN3CCCC3)cc2)N(Cc2sc3ccccc3c2Cl)C=C1C(=O)OC (centres undefined)
1.25
2. CC(C)C(=C=CC[C@@H](O)c1ccc(OCCO)cc1)CCO
0.224
3. C=C(/C(=C/C[C@H](OC(=O)c1ccncc1)c1ccccc1OCCO)c1cc(C(=O)OC)ccc1OC)C(C)C
0.913

Ask | Provide the documented composite z-score with Wnt5a (protein binding on small-molecule microarray) as the system for CCOC(=O)C[C@H]1[C@H](OC(=O)c2cc3ccccc3oc2=O)[C@@H](NC(=O)C2CCCCC2)c2cc(OCCCO)ccc2N1C(=O)Cc1ccc(OC)cc1
Reply | 0.418

====

Assay: MM1S myeloma cell viability, profiling panel, resazurin fluorescence, basal, 24 h, PK04 Diversity Set (AID 1174);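 further: MM1S multiple myeloma cell line; test concentration not given here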
Details: higher = more signal, called active from +8 up or from −8 down
Threshold check on z-score: at or above -0.5 gives YES, strictly below gives NO.

Previously resolved entries follow.
1. COCCOC(=O)N1C(=O)[C@@]2(c3cc(C#CCCO)ccc31)[C@H](C(=O)N1CCc3cc(OC)c(OC)cc3C1)[C@H]1C(=O)O[C@H](c3ccccc3)[C@H](c3ccccc3)N1[C@@H]2c1ccccc1OCCO
YES
2. C=C(COC)/C(=C/C[C@H](OC(=O)c1ccncc1)c1ccc(OCCO)cc1)c1cc(C(=O)OC)ccc1OC
YES
3. CCOC(=O)C[C@H]1[C@H](OC(=O)Cc2ccc3c(c2)OCO3)[C@@H](NC(=O)c2ccccc2)c2cc(OCCCO)ccc2N1C(=O)Cc1ccc(OC)cc1
YES
4. C[N+](C)(C)CCCCCCNC(=O)[C@H]1C[C@H]2C(=O)NCC(=O)N2[C@H]1c1cccc(OCCO)c1
YES

Now examine the next entry.
Ask | Please check the record COc1ccccc1CN1C(=O)c2ccccc2[C@](Cc2ccccc2I)(C(=O)NCCCN(C)C)[C@@H]1c1ccc(CO)cc1 and state if its z-score is at or above -0.5.
Reply | NO
